EXPERIMENTAL DETAILS: Sedative action: orientation hypermotility of mice induced by a new environment (ED 50%)
Format: in vivo, female NMRI mice
REPORTED CONDITIONS: Table 2; mouse, oral administration
PROPERTY LABEL: Sedative effect R.A. (relative activity; chlorpromazine = 1.00)
Answers are plain numbers.

In the examples that follow, each entry is paired with its recorded Sedative effect R.A. (relative activity; chlorpromazine = 1.00).
INSERT INTO measurements (compound, reported_measurement) VALUES
  ('Fc1ccc(N2CCN(CCCOc3ccc(-n4ccnc4)cc3)CC2)cc1', 0.69),
  ('CN(C)CCCN1c2ccccc2Sc2ccc(Cl)cc21 [chlorpromazine, reference compound]', 1.0);

Below are some compounds; for each one, tell me its Sedative effect R.A. (relative activity; chlorpromazine = 1.00).
1. Fc1ccc(N2CCN(CCCNc3ccc(-n4ccnc4)cc3)CC2)cc1
2. Fc1ccc(N2CCN(CCCNc3ccc(-n4cncn4)cc3)CC2)cc1

Result:
1. 1.3
2. 2.59

###

For each record, write down the corresponding Hypotensive effect R.A. (relative activity; chlorpromazine = 1.00).
EXPERIMENTAL DETAILS: Hypotensive action on rats under urethane narcosis, blood pressure measured in the carotid artery (ED 20%)
Type: in vivo, Sprague-Dawley rats
REPORTED CONDITIONS: Table 1; rat, intravenous administration
One number for each entry.

INSERT INTO measurements (compound, reported_measurement) VALUES
  ('COc1ccccc1N1CCN(CCCOc2ccc(-c3nnco3)cc2)CC1 [Example 11]', 3.71),
  ('COc1ccccc1N1CCN(CCCOc2cccc(-c3nnco3)c2)CC1 [Example 6]', 3.38),
  ('COc1ccccc1N1CCN(CCCOc2cccc(-c3nnc(C)o3)c2)CC1 [Example 7]', 2.17),
  ('COc1ccccc1N1CCN(CCCOc2ccccc2-c2nnco2)CC1 [Example 1]', 3.25);

Below are some compounds; for each one, tell me its Hypotensive effect R.A. (relative activity; chlorpromazine = 1.00).
1. COc1ccccc1N1CCN(CCCOc2ccccc2-c2nnc(C)o2)CC1 [Example 3]
2. CN(C)CCCN1c2ccccc2Sc2ccc(Cl)cc21 [chlorpromazine, reference compound]

Result:
[0.68, 1.00]

###

EXPERIMENTAL DETAILS: Sedative action: orientation hypermotility of mice induced by a new environment (ED 50%)
Format: in vivo, female NMRI mice
REPORTED CONDITIONS: Table 1; mouse, oral administration
Friendly reminder: Sedative effect R.A. (relative activity; chlorpromazine = 1.00) below 0.7 is 1, at or above is 0.

Some solved cases for reference:
INSERT INTO results (molecule, category_label) VALUES
  ('COc1ccccc1N1CCN(CCCOc2ccc(-c3nnco3)cc2)CC1', 0),
  ('COc1ccccc1N1CCN(CCCOc2ccccc2-c2nnc(C)o2)CC1', 1),
  ('COc1ccccc1N1CCN(CCCOc2cccc(-c3nnc(C)o3)c2)CC1', 1),
  ('COc1ccccc1N1CCN(CCCOc2cccc(-c3nnco3)c2)CC1', 1),
  ('CN(C)CCCN1c2ccccc2Sc2ccc(Cl)cc21 [chlorpromazine, reference compound]', 0);

Consider the record given below.
Q: Does the reported Sedative effect R.A. (relative activity; chlorpromazine = 1.00) of "COc1ccccc1N1CCN(CCCOc2ccccc2-c2nnco2)CC1" stay below 0.7?
Result: 1

###

EXPERIMENTAL DETAILS: Hypotensive action on rats under urethane narcosis, blood pressure measured in the carotid artery (ED 20%)
Format: in vivo, Sprague-Dawley rats
REPORTED CONDITIONS: Table 1; quotient defined by formula drawing 8 (sedative ED 50% mouse oral, hypotensive ED 20% rat i.v.)
For each record, write down the corresponding Q.
Give bare numbers.

INSERT INTO results (compound, property_label, reported_measurement) VALUES
  ('CN(C)CCCN1c2ccccc2Sc2ccc(Cl)cc21 [chlorpromazine, reference compound]', 'Q', 81);

Below are some compounds; for each one, tell me its Q.
1. COc1ccccc1N1CCN(CCCOc2cccc(-c3nnco3)c2)CC1 [Example 6]
2. COc1ccccc1N1CCN(CCCOc2ccccc2-c2nnc(C)o2)CC1 [Example 3]
3. COc1ccccc1N1CCN(CCCOc2cccc(-c3nnc(C)o3)c2)CC1 [Example 7]
4. COc1ccccc1N1CCN(CCCOc2ccc(-c3nnco3)cc2)CC1 [Example 11]

Result:
[417, 534, 312, 307]
